Hello, the source for this data is paper PMC9820377, in case you need it.

Target Or Test System: PflaPBP1 (Phauda flammans)
Sequence (A0A6M6RBM3 entry or part of it): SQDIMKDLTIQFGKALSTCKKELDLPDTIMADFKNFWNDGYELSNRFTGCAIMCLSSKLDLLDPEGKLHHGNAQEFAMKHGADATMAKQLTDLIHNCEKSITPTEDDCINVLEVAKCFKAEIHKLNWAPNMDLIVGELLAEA
Procedure Summary: Fluorescence competitive binding assay with 1-NPN probe, PflaPBP1
Protocol Conditions: calculated from IC50 and K1-NPN; recombinant protein 2 µM, 1-NPN 2 µM, 50 mM Tris-HCl buffer, pH 7.4

Compound | Ki
CC/C=C\C/C=C\C/C=C\CCCCCCCC=O [(Z, Z, Z)-9, 12, 15-octadecatrienal] | 38.5 µM
CCCCCC/C=C\CCCCCCCC=O | 21.3 µM

* * *

Target Or Test System: PflaPBP2 (Phauda flammans, UniProt A0A6M6R985)
Sequence (A0A6M6R985 entry or part of it): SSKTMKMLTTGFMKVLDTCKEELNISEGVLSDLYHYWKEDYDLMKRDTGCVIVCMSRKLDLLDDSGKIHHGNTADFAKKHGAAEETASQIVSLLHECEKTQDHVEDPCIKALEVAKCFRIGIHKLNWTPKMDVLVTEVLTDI
Procedure Summary: Fluorescence competitive binding assay with 1-NPN probe, PflaPBP2
Protocol Conditions: calculated from IC50 and K1-NPN; recombinant protein 2 µM, 1-NPN 2 µM, 50 mM Tris-HCl buffer, pH 7.4
Recorded Ki by entry

Compound | Unit Label | Ki
CC/C=C\C/C=C\C/C=C\CCCCCCCC=O [(Z, Z, Z)-9, 12, 15-octadecatrienal] | µM | 24.8
CCCCCC/C=C\CCCCCCCC=O [Z-9-hexadecenal] | µM | 109
